Tested on: Macacine alphaherpesvirus 1
experiment.summary: Ratio of acyclovir EC50 to compound EC50 for Macacine herpesvirus 1 isolate MJ3 infected in african green monkey Vero cells
Format: functional
parameter.measured: Ratio EC50

Field: example entries. Status: answers known.
compound	parameter.measured	obs.value
CCc1cn([C@H]2O[C@@H](CO)[C@H](O)[C@H]2F)c(=O)[nH]c1=O (single isomer, unassigned)	Ratio EC50	100
Nc1nc(=O)n([C@@H]2O[C@H](CO)[C@@H](O)[C@@H]2F)cc1Br	Ratio EC50	10
Cc1cn([C@H]2O[C@@H](CO)[C@H](O)[C@H]2F)c(=O)[nH]c1=O	Ratio EC50	100

Okay, now this compound:
Sample Cc1cn([C@@H]2O[C@H](CO)[C@@H](O)[C@@H]2F)c(=O)nc1N — what was its Ratio EC50?
10

Numbers sourced from ChEMBL document CHEMBL1212758.
